Test system: Rhodotorula rubra
Assay: Screening against yeasts
Format: cell-based
Design: key: 3 = complete inhibition of growth, 2 = growth partially controlled
Conditions: test compound concentration 500 μmol
Where a name gives a salt, the structure may show the parent alone.
For each record, write down the corresponding Test yeast (20) Rhodotorula rubra (score).
Field format: numeric only.

Field Test yeast (20) Rhodotorula rubra (score) (entry CN(C)CC1CCN(CCC(c2ccccc2)c2ccc(-c3ccccc3)cc2)CC1 (stereo not shown) ) reads 3

Entry CCN1CCC(N2CCC(C(c3ccccc3)c3ccc(-c4ccccc4)cc3)CC2)CC1.Cl.Cl (stereo not shown) — recorded Test yeast (20) Rhodotorula rubra (score) = 1

Entry Cl.Cl.NC1CCN(CCC(c2ccccc2)c2ccc(-c3ccccc3)cc2)CC1 (stereo not shown) , Test yeast (20) Rhodotorula rubra (score) reported as 1

Test yeast (20) Rhodotorula rubra (score) reported for this molecule `NC1CCN(CC=C(c2ccccc2)c2ccc(-c3ccccc3)cc2)CC1.O=C(O)C(=O)O.O=C(O)C(=O)O` : 1

// c1ccc(-c2ccc(C(NC3CCN(C4CCNCC4)CC3)c3ccccc3)cc2)cc1 (stereo not shown) : Test yeast (20) Rhodotorula rubra (score) value = 3

The molecule identified as c1ccc(-c2ccc(C(c3ccccc3)C3CCN(C4CCNCC4)CC3)cc2)cc1 (single isomer, unassigned) registered its Test yeast (20) Rhodotorula rubra (score) at 3

CN(C)CCCN1CCC(C(c2ccccc2)c2ccc(-c3ccccc3)cc2)CC1.Cl.Cl (stereo not shown) yielded Test yeast (20) Rhodotorula rubra (score) of 2

Entry Cl.Cl.c1ccc(-c2ccc(C(c3ccccc3)C3CCN(C4CCNCC4)CC3)cc2)cc1 (single isomer, unassigned) ; Test yeast (20) Rhodotorula rubra (score) = 1

Form: molecule = CNCCCN(C)CCCN(C)C(c1ccccc1)c1ccc(-c2ccccc2)cc1 (racemic) [Co. No. 52, trihydrochloride] ; Test yeast (20) Rhodotorula rubra (score) = 3

Please fill in: Test yeast (20) Rhodotorula rubra (score) reported for NCCCN1CCC(N2CCC(C(c3ccccc3)c3ccc(-c4ccccc4)cc3)CC2)CC1 (stereo not shown) = 3

Note to self: Test yeast (20) Rhodotorula rubra (score) recorded for Br.Br.CN(CCC(c1ccccc1)c1ccc(-c2ccccc2)cc1)C1CCNCC1 (stereo not shown) was 3

Measured Test yeast (20) Rhodotorula rubra (score), Cl.Cl.Cl.c1ccc(-c2ccc(C(c3ccccc3)N3CCN(C4CCNCC4)CC3)cc2)cc1 (stereo not shown) : 1

The molecule listed as CN(C)CCNCCC(c1ccccc1)c1ccc(-c2ccccc2)cc1 (stereo not shown) shows Test yeast (20) Rhodotorula rubra (score) equal to 1

The molecule identified as Cl.Cl.NCC1CCN(CCC(c2ccccc2)c2ccc(-c3ccccc3)cc2)CC1 (stereo not shown) registered its Test yeast (20) Rhodotorula rubra (score) at 1

Recorded result, Cl.Cl.NCCC1CCN(CCC(c2ccccc2)c2ccc(-c3ccccc3)cc2)CC1 (stereo not shown) , Test yeast (20) Rhodotorula rubra (score): 3

So, `NCCC1CCN(CC=C(c2ccccc2)c2ccc(-c3ccccc3)cc2)CC1.O=C(O)C(=O)O.O=C(O)C(=O)O` ? Its Test yeast (20) Rhodotorula rubra (score) was 1

----------
System: Rhodotorula rubra
Experiment: Screening against yeasts
Format: cell-based
Conditions: test compound concentration 500 μmol
measured-parameter: Test yeast (20) Rhodotorula rubra (score)
Please respond with just the number, no unit label.

Rhodotorula rubra assay, compound Cl.Cl.Fc1ccc(-c2ccc(C(c3ccccc3)C3CCN(C4CCNCC4)CC3)cc2)cc1.O (racemic) , recorded Test yeast (20) Rhodotorula rubra (score) = 2

# Cl.Cl.NCCCNCCC(c1ccccc1)c1ccc(-c2ccccc2)cc1 (stereo not drawn) with Rhodotorula rubra: Test yeast (20) Rhodotorula rubra (score) is 3

# Test yeast (20) Rhodotorula rubra (score) measured on Rhodotorula rubra for item Cl.Cl.NCCCN1CCC(C(c2ccccc2)c2ccc(-c3ccccc3)cc2)CC1.O (stereo not drawn) = 3

# value of Test yeast (20) Rhodotorula rubra (score), Rhodotorula rubra, item `NCC1CCN(CC=C(c2ccccc2)c2ccc(-c3ccccc3)cc2)CC1.O=C(O)C(=O)O.O=C(O)C(=O)O` = 2

Entry Br.Br.COc1ccc(C(c2ccc(-c3ccccc3)cc2)C2CCN(C3CCNCC3)CC2)cc1 (stereo not drawn) , tested on Rhodotorula rubra, has a reported Test yeast (20) Rhodotorula rubra (score) of 2

Tested on Rhodotorula rubra, the item Cl.Fc1ccc(C(c2ccc(-c3ccccc3)cc2)C2CCN(C3CCNCC3)CC2)cc1 (stereo not drawn) showed Test yeast (20) Rhodotorula rubra (score) equal to 1

So the reported Test yeast (20) Rhodotorula rubra (score) for Cc1ccc(C(c2ccc(-c3ccc(F)cc3)cc2)C2CCN(C3CCNCC3)CC2)cc1.Cl.Cl (stereo not drawn) , on Rhodotorula rubra, turned out to be 3

So the reported Test yeast (20) Rhodotorula rubra (score) for Cl.Cl.O.c1ccc(-c2ccc(C(c3ccccc3)C3CCN(C4CCNCC4)CC3)cc2)cc1 (racemic) , on Rhodotorula rubra, turned out to be 3

Form: item Br.Br.c1ccc(-c2ccc(C(CCNC3CCNCC3)c3ccccc3)cc2)cc1 (stereo not drawn) ; test system Rhodotorula rubra; Test yeast (20) Rhodotorula rubra (score): 3

Note to self: Test yeast (20) Rhodotorula rubra (score) of Cl.Cl.Oc1ccc(C(c2ccc(-c3ccccc3)cc2)C2CCN(C3CCNCC3)CC2)cc1 (stereo not drawn) with Rhodotorula rubra was 1

Entry Cl.Cl.Cl.NC1CCN(C2CCN(C(c3ccccc3)c3ccc(-c4ccccc4)cc3)CC2)CC1 (stereo not drawn) ; assay system Rhodotorula rubra; Test yeast (20) Rhodotorula rubra (score) recorded at 2

The recorded Test yeast (20) Rhodotorula rubra (score) with Rhodotorula rubra for Cl.Cl.Fc1ccc(-c2ccc(C(c3ccc(F)cc3)C3CCN(C4CCNCC4)CC3)cc2)cc1 (stereo not drawn) was 3

----------
Provide the reported Test yeast (21) Sporobolomyces roseus (score) of each item.
Test system: Sporobolomyces roseus
Test: Screening against yeasts
Type: cell-based
Design: key: 3 = complete inhibition of growth, 2 = growth partially controlled
Conditions: test compound concentration 500 μmol
Where a name gives a salt, the structure may show the parent alone.

Log: Sporobolomyces roseus, compound NCCCN1CCC(N2CCC(C(c3ccccc3)c3ccc(-c4ccccc4)cc3)CC2)CC1 (stereo not shown) , Test yeast (21) Sporobolomyces roseus (score) = 3

The compound `NCC1CCN(CC=C(c2ccccc2)c2ccc(-c3ccccc3)cc2)CC1.O=C(O)C(=O)O.O=C(O)C(=O)O` on Sporobolomyces roseus: Test yeast (21) Sporobolomyces roseus (score) was 3

Entry Cl.Fc1ccc(C(c2ccc(-c3ccccc3)cc2)C2CCN(C3CCNCC3)CC2)cc1 (stereo not shown) : Test yeast (21) Sporobolomyces roseus (score) on Sporobolomyces roseus = 3

GET /values?item= Cl.Cl.O.c1ccc(-c2ccc(C(c3ccccc3)C3CCN(C4CCNCC4)CC3)cc2)cc1 (racemic) &system= Sporobolomyces roseus returns Test yeast (21) Sporobolomyces roseus (score): 3

Bench note, Sporobolomyces roseus: entry Cl.Cl.NCC1CCN(CCC(c2ccccc2)c2ccc(-c3ccccc3)cc2)CC1 (stereo not shown) , its Test yeast (21) Sporobolomyces roseus (score) = 3

Summary line: Cc1ccc(C(c2ccc(-c3ccc(F)cc3)cc2)C2CCN(C3CCNCC3)CC2)cc1.Cl.Cl (stereo not shown) , Sporobolomyces roseus, reported Test yeast (21) Sporobolomyces roseus (score) = 3

Tested on Sporobolomyces roseus: Cl.Cl.NCCC1CCN(CCC(c2ccccc2)c2ccc(-c3ccccc3)cc2)CC1 (stereo not shown) . Observed Test yeast (21) Sporobolomyces roseus (score): 3

Field Test yeast (21) Sporobolomyces roseus (score) (Sporobolomyces roseus), entry Cl.Cl.Fc1ccc(-c2ccc(C(c3ccccc3)C3CCN(C4CCNCC4)CC3)cc2)cc1.O (racemic) : 3

Entry c1ccc(-c2ccc(C(NC3CCN(C4CCNCC4)CC3)c3ccccc3)cc2)cc1 (stereo not shown) under Sporobolomyces roseus had Test yeast (21) Sporobolomyces roseus (score) of 3

Record CN(C)CCCN1CCC(C(c2ccccc2)c2ccc(-c3ccccc3)cc2)CC1.Cl.Cl (stereo not shown) ; system Sporobolomyces roseus; Test yeast (21) Sporobolomyces roseus (score) = 3

Response field Test yeast (21) Sporobolomyces roseus (score) (Sporobolomyces roseus) for item Cl.Cl.NCCCN1CCC(C(c2ccccc2)c2ccc(-c3ccccc3)cc2)CC1.O (stereo not shown) : 3

Let me check: CCN1CCC(N2CCC(C(c3ccccc3)c3ccc(-c4ccccc4)cc3)CC2)CC1.Cl.Cl (stereo not shown) , system Sporobolomyces roseus, measured Test yeast (21) Sporobolomyces roseus (score) is 3

Recorded Test yeast (21) Sporobolomyces roseus (score) for Cl.Cl.Fc1ccc(-c2ccc(C(c3ccc(F)cc3)C3CCN(C4CCNCC4)CC3)cc2)cc1 (stereo not shown) on Sporobolomyces roseus was 3

Entry Br.Br.COc1ccc(C(c2ccc(-c3ccccc3)cc2)C2CCN(C3CCNCC3)CC2)cc1 (stereo not shown) : Test yeast (21) Sporobolomyces roseus (score) on Sporobolomyces roseus = 3

Item `NCCC1CCN(CC=C(c2ccccc2)c2ccc(-c3ccccc3)cc2)CC1.O=C(O)C(=O)O.O=C(O)C(=O)O` ; assay system Sporobolomyces roseus; Test yeast (21) Sporobolomyces roseus (score) reported as 3

// compound Cl.Cl.NCCCNCCC(c1ccccc1)c1ccc(-c2ccccc2)cc1 (stereo not shown) , assay Sporobolomyces roseus, Test yeast (21) Sporobolomyces roseus (score) value: 3

The measured Test yeast (21) Sporobolomyces roseus (score) that `NC1CCN(CC=C(c2ccccc2)c2ccc(-c3ccccc3)cc2)CC1.O=C(O)C(=O)O.O=C(O)C(=O)O` showed for Sporobolomyces roseus is 3

Entry Cl.Cl.c1ccc(-c2ccc(C(c3ccccc3)C3CCN(C4CCNCC4)CC3)cc2)cc1 (single isomer, unassigned) under Sporobolomyces roseus had Test yeast (21) Sporobolomyces roseus (score) of 3

Lab note: compound Br.Br.c1ccc(-c2ccc(C(CCNC3CCNCC3)c3ccccc3)cc2)cc1 (stereo not shown) tested on Sporobolomyces roseus; recorded Test yeast (21) Sporobolomyces roseus (score) was 3

// compound Cl.Cl.Oc1ccc(C(c2ccc(-c3ccccc3)cc2)C2CCN(C3CCNCC3)CC2)cc1 (stereo not shown) , assay Sporobolomyces roseus, Test yeast (21) Sporobolomyces roseus (score) value: 3

The reported Sporobolomyces roseus Test yeast (21) Sporobolomyces roseus (score) of CN(C)CC1CCN(CCC(c2ccccc2)c2ccc(-c3ccccc3)cc2)CC1 (stereo not shown) is 3

Fill in: Sporobolomyces roseus Test yeast (21) Sporobolomyces roseus (score) for c1ccc(-c2ccc(C(c3ccccc3)C3CCN(C4CCNCC4)CC3)cc2)cc1 (single isomer, unassigned) = 3

Assay Sporobolomyces roseus, sample CNCCCN(C)CCCN(C)C(c1ccccc1)c1ccc(-c2ccccc2)cc1 (racemic) [Co. No. 52, trihydrochloride] , Test yeast (21) Sporobolomyces roseus (score) read: 3

The observed Test yeast (21) Sporobolomyces roseus (score) for Br.Br.CN(CCC(c1ccccc1)c1ccc(-c2ccccc2)cc1)C1CCNCC1 (stereo not shown) when tested with Sporobolomyces roseus stands at 3

Assay Sporobolomyces roseus, sample CN(C)CCNCCC(c1ccccc1)c1ccc(-c2ccccc2)cc1 (stereo not shown) , Test yeast (21) Sporobolomyces roseus (score) read: 3

Considering Cl.Cl.Cl.NC1CCN(C2CCN(C(c3ccccc3)c3ccc(-c4ccccc4)cc3)CC2)CC1 (stereo not shown) , its Test yeast (21) Sporobolomyces roseus (score) with Sporobolomyces roseus was recorded as 3

Value (Test yeast (21) Sporobolomyces roseus (score), Sporobolomyces roseus) for record Cl.Cl.Cl.c1ccc(-c2ccc(C(c3ccccc3)N3CCN(C4CCNCC4)CC3)cc2)cc1 (stereo not shown) = 3

GET /values?item= Cl.Cl.NC1CCN(CCC(c2ccccc2)c2ccc(-c3ccccc3)cc2)CC1 (stereo not shown) &system= Sporobolomyces roseus returns Test yeast (21) Sporobolomyces roseus (score): 3
